test: protein stability index of a GFP-peptide fusion (GPS, HEK-293T) (PSI 1-6); higher = more stable; conditions: treatment: MLN4924 1 uM, 8 h; c terminus: a fixed tail appended;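 further: 24-mer peptide tiles fused after GFP, lentivirally expressed, FACS-sorted into six equal bins by GFP/DsRed ratio, decoded by Illumina sequencing, PSI is the read-weighted mean bin number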
Label scheme for protein stability index: lower than 4 is Not met, 4 and above is Met.

Check if protein stability index >= 4 (inclusive). Item: FGAAGVNRLSIGLQSLDDTELRLL [RSAD1]
Not met

Check if protein stability index >= 4 (inclusive). Item: SLKGSLSVEEQLSLISGCPNIQEA [CRYL1]
Met

Check if protein stability index >= 4 (inclusive). Item: NLQDLCRIKIRQCIGLQNLKLLDE [ASB7]
Not met

Check if protein stability index >= 4 (inclusive). Item: VAERKYTQEQARKEFQQVFIPECN [SMOC2]
Met

Check if protein stability index >= 4 (inclusive). Item: LTALLEKYTPSNKHGFSWAVPKFM [DLC1]
Not met

Check if protein stability index >= 4 (inclusive). Item: LEIELQSQLSMKASLENSLEETKG [KRT16]
Met

Check if protein stability index >= 4 (inclusive). Item: AKELTAEKRLEGQEEEEDNRDSSM [CHGA]
Met

Check if protein stability index >= 4 (inclusive). Item: RKQKQELCEKFDYLYGILEERKNE [TRIM55]
Not met

Check if protein stability index >= 4 (inclusive). Item: SRSYSPRRSRGSPRYSPRHSRSRS [SRSF1]
Met

Check if protein stability index >= 4 (inclusive). Item: PEQSLKKTKTSEYPIIFVYYLRKG [SPANXN3]
Not met

Check if protein stability index >= 4 (inclusive). Item: GPSVSEPPGLPRVSAYVDTTADLD [SPATS1]
Met

Check if protein stability index >= 4 (inclusive). Item: RAAAAAAVAAATAAVEGSGGSGGG [KCNA4]
Met

---

experiment: protein stability index of a GFP-peptide fusion (GPS, HEK-293T) (PSI 1-6); higher = more stable; settings: treatment: DMSO; c terminus: a fixed tail appended
Label scheme for protein stability index: lower than 3 is Condition not met, 3 and above is Condition met.

Check if protein stability index >= 3 (inclusive). Item: PLMVASAQSGERECHIVVLTDDDV [BTBD10]
Condition met

Check if protein stability index >= 3 (inclusive). Item: TEEQTRQERQGPAKPEVLSIQWPG [NECAB1]
Condition met

Check if protein stability index >= 3 (inclusive). Item: EQSSARQKASLLIQQALTMFPGVL [TCF25]
Condition not met

Check if protein stability index >= 3 (inclusive). Item: LKVRYRERITILRGNHESRQITQV [PPP2CA]
Condition not met

Check if protein stability index >= 3 (inclusive). Item: APLTISRVHAGSKAALAALCPGDL [PDLIM4]
Condition met

Check if protein stability index >= 3 (inclusive). Item: PESVEASPVVVEKSNSYPHQLYTS [KMT2E]
Condition met

Check if protein stability index >= 3 (inclusive). Item: QCLVEGCTEKFKTSRDRKDHMVRM [ZNF511]
Condition met

Check if protein stability index >= 3 (inclusive). Item: LHDIFENKTDVVLILELVSGGELF [DAPK3]
Condition not met

Check if protein stability index >= 3 (inclusive). Item: PRDLPKHTPLISKSQSLRSVRRSE [RASAL3]
Condition met

Check if protein stability index >= 3 (inclusive). Item: MPPQPGIPQQQGMRPPMPPHGQYG [ZNF207]
Condition met

Check if protein stability index >= 3 (inclusive). Item: ERLLAVAERYGLSGSDVLDNVAYA [RAD51]
Condition not met

Check if protein stability index >= 3 (inclusive). Item: RSPRAGAGALLRLPSERLDFSMAE [PRPH]
Condition met

Check if protein stability index >= 3 (inclusive). Item: RDLPDTPRRFTFYPCVLATEGFTS [TRIM39]
Condition not met

Check if protein stability index >= 3 (inclusive). Item: EIATKPHEKIGFPAARRCHSCVQI [KLHDC10]
Condition not met

Check if protein stability index >= 3 (inclusive). Item: AKHRLVPPAQGRVSRRLSPRKVST [TRIM9]
Condition met

Check if protein stability index >= 3 (inclusive). Item: IYSVVDLGMYQKVTSYCRSATLVG [SLC19A2]
Condition not met

Check if protein stability index >= 3 (inclusive). Item: ETLDYGKNYNYGMHYCAVPPRGPL [NEUROD6]
Condition not met

Check if protein stability index >= 3 (inclusive). Item: EEDSILIIPTPDEEEKILRVKLEE [ZNF24]
Condition met

Check if protein stability index >= 3 (inclusive). Item: SKNLIYRDVKPENFLIGRQGNKKE [CSNK1G1]
Condition met

Check if protein stability index >= 3 (inclusive). Item: LGLVGYYIFRVANHQKDLFRRTDG [DHCR7]
Condition not met

Check if protein stability index >= 3 (inclusive). Item: CLMIGRDLVRLLQNVARIPEFELL [INTS3]
Condition not met

---

test: protein stability index of a GFP-peptide fusion (GPS, HEK-293T) (PSI 1-6); higher = more stable; settings: treatment: MLN4924 1 uM, 8 h; c terminus: a fixed tail appended
Label scheme for protein stability index: lower than 3 is no (0), 3 and above is yes (1).

Check if protein stability index >= 3 (inclusive). Item: DPMLDFYSDKNAKLTKESYPVVVA [TENT5D]
yes (1)

Check if protein stability index >= 3 (inclusive). Item: APAPAPEEWLDILGNGLLRKKTLV [FKBP8]
yes (1)

Check if protein stability index >= 3 (inclusive). Item: ADISEAEQRTIQAQKESLQNQHHS [APBB1IP]
yes (1)

Check if protein stability index >= 3 (inclusive). Item: EEDSILIIPTPDEEEKILRVKLEE [ZNF24]
yes (1)

Check if protein stability index >= 3 (inclusive). Item: YTYRDYGHSSSRDDYPSRGYSDRD [RBMX]
yes (1)

Check if protein stability index >= 3 (inclusive). Item: LHEALLEYEAGRAGPGGGAERRRA [ESRRA]
yes (1)

Check if protein stability index >= 3 (inclusive). Item: CKGRDHGVLDALHVLEGLFRTDPE [ZSWIM9]
no (0)

Check if protein stability index >= 3 (inclusive). Item: LVTTGANVNETDDWGRTALHYAAA [ANKRD44]
yes (1)

Check if protein stability index >= 3 (inclusive). Item: QAPGEENLLGEAAGGQDMADSMLM [HDAC6]
yes (1)

Check if protein stability index >= 3 (inclusive). Item: FYQAVRDLLPVWLLEDMRASEAFH [ANKRD9]
no (0)

Check if protein stability index >= 3 (inclusive). Item: RKTQKKVPDVKEMEKSSFTEYIES [TAF7L]
yes (1)

Check if protein stability index >= 3 (inclusive). Item: MAVLEEIQQELIKQEQSIISEYEK [RPAIN]
yes (1)

Check if protein stability index >= 3 (inclusive). Item: YRMRNVHPKPKLVRVLESLLVSLV [CLCN6]
no (0)

Check if protein stability index >= 3 (inclusive). Item: EEARRNRLMRDMAQLRLQLEVSQL [SMG5]
no (0)

Check if protein stability index >= 3 (inclusive). Item: RLDKHLYVIGGRNETGYLSSVECY [KLHL14]
no (0)

Check if protein stability index >= 3 (inclusive). Item: PLPFPGPFPAGPLAVAGGPRKTAA [ESRRA]
yes (1)

Check if protein stability index >= 3 (inclusive). Item: MTGTPKTQEGAKDLEVDMNKTEVT [ACSBG2]
yes (1)

Check if protein stability index >= 3 (inclusive). Item: HSEVVEELVSADVIDLFDEQGLSA [RIPK4]
yes (1)

Check if protein stability index >= 3 (inclusive). Item: AFHPLFSLTSGACRLDYRRPENRS [TCF25]
no (0)

Check if protein stability index >= 3 (inclusive). Item: TGKGPSTHTQIDQQPPRLLIVHIA [M1AP]
no (0)

Check if protein stability index >= 3 (inclusive). Item: VLDLEARGYIKPHVDSIKFCGATI [ALKBH7]
no (0)

Check if protein stability index >= 3 (inclusive). Item: PASYTAPIMSGQGLAGFFASVAMI [SLC29A1]
no (0)

Check if protein stability index >= 3 (inclusive). Item: DFTLSKTNMARIREIMEKFGKQPV [CPXM2]
no (0)

Check if protein stability index >= 3 (inclusive). Item: WSPSPPATPEQGLSAFYLSYFDML [SPDEF]
no (0)

Check if protein stability index >= 3 (inclusive). Item: QIEKKEKKLHKIQNKAQRQKDLIM [TAF7L]
yes (1)

Check if protein stability index >= 3 (inclusive). Item: DIDLSLYIPRDVDETGITVASLER [ZC3H15]
yes (1)

Check if protein stability index >= 3 (inclusive). Item: VGGATLAQTTSEAAMEGATLDQTT [HDAC6]
yes (1)

Check if protein stability index >= 3 (inclusive). Item: TRQNGIQTNKPALRAVRQRSEFTL [STX5]
yes (1)

Check if protein stability index >= 3 (inclusive). Item: SRLLGAAAGQRSRPSTYYELLGVH [DNAJC4]
no (0)

Check if protein stability index >= 3 (inclusive). Item: SQILQNKKHKNSQLDKNSEVYQEV [FAM98B]
yes (1)

Check if protein stability index >= 3 (inclusive). Item: TYAVRKLDNTKFRSHEGETAYIRV [SRSF1]
no (0)

Check if protein stability index >= 3 (inclusive). Item: ELSEAAEAQHGPHSAVARISRAQY [STX11]
yes (1)

Check if protein stability index >= 3 (inclusive). Item: IDKNTQLTLQVYREQADSCREQLD [TRIM14]
yes (1)

Check if protein stability index >= 3 (inclusive). Item: PLMVASAQSGERECHIVVLTDDDV [BTBD10]
yes (1)

Check if protein stability index >= 3 (inclusive). Item: DIHVGLRGVPLLEWETEVEMDKLR [CLCN6]
yes (1)

Check if protein stability index >= 3 (inclusive). Item: NKTEVTPRLWTTCRDGEVLLRLSK [ACSBG2]
no (0)

Check if protein stability index >= 3 (inclusive). Item: METSAPRAGSQVVATTARHSAAYR [FUNDC2]
yes (1)

Check if protein stability index >= 3 (inclusive). Item: VITYILLSGASPFLGETKQETLTN [DAPK3]
no (0)

Check if protein stability index >= 3 (inclusive). Item: NIRSARGNNPNGREAKMICFKSVA [ELOA2]
yes (1)

Check if protein stability index >= 3 (inclusive). Item: IYVIGDLDTGTNYDYVREFKRSTG [GAN]
no (0)

Check if protein stability index >= 3 (inclusive). Item: SSGSFCYCHPDSETDEDEEEGDEQ [GMCL1]
yes (1)

Check if protein stability index >= 3 (inclusive). Item: DHSSRELSKILAKLERLKQQNEDL [FUT8]
yes (1)

Check if protein stability index >= 3 (inclusive). Item: TALTSFCAKYTYPVCSALLDPVLQ [FANCE]
no (0)

Check if protein stability index >= 3 (inclusive). Item: ICDPGLTSFEPEALGNLVEGMDFH [CAMK2B]
yes (1)

Check if protein stability index >= 3 (inclusive). Item: SKLSLLLNDISRKSEGLSGRVLRK [TRIP13]
no (0)

Check if protein stability index >= 3 (inclusive). Item: RNGHAKVVRLLLEHYRVQTQQTGT [FEM1B]
no (0)

Check if protein stability index >= 3 (inclusive). Item: DNLLAAADKYALERLKVMCEEALC [SPOPL]
no (0)

Check if protein stability index >= 3 (inclusive). Item: AKHRLVPPAQGRVSRRLSPRKVST [TRIM9]
yes (1)

Check if protein stability index >= 3 (inclusive). Item: LGLYINFRHLYKQRRRRYGQKKKK [HACD3]
no (0)

Check if protein stability index >= 3 (inclusive). Item: VEGAMHIQECVPEDLELKKKIFAQ [CRYL1]
yes (1)
